# key: entry, value: melting point

See these solved cases before continuing.
>>> reported("COc1ccc(C(=O)O)cc1NC(=O)[C@H](CCCNC(=N)N[N+](=O)[O-])NC(=O)OCc1ccccc1")
"208 to 209 °C"
>>> reported("C[Si](C)(C)NC(=O)CC(=O)N[Si](C)(C)C")
"72 to 76 °C"

Which value of melting point has been reported for "Cc1nc(N)nc(N[C@@H]2CCc3ccccc32)n1" in the records?
94 to 96 °C

Which value of melting point has been reported for O=C(CC1(S(=O)c2ccc(Oc3ccc(F)cc3)cc2)CCOCC1)NO (configuration not stated) in the records?
120 °C

Which value of melting point has been reported for "O=C(O)c1cnc2cccc(O)c2c1" in the records?
> 260 °C

Which value of melting point has been reported for "N#Cc1ccc2c(c1)NCc1ccccc1O2" in the records?
104 to 105 °C

Which value of melting point has been reported for CNCC(O)COc1cc(-c2ccc(C)cc2)nc2cc(C)ccc12 (racemic) in the records?
146 to 150 °C
